Known pEC50 of a selection of compounds
Biological target: neurotensin receptor 1 (NTR1) (Homo sapiens (Human), UniProt P30989)
Sequence (P30989 whole entry, species assumed): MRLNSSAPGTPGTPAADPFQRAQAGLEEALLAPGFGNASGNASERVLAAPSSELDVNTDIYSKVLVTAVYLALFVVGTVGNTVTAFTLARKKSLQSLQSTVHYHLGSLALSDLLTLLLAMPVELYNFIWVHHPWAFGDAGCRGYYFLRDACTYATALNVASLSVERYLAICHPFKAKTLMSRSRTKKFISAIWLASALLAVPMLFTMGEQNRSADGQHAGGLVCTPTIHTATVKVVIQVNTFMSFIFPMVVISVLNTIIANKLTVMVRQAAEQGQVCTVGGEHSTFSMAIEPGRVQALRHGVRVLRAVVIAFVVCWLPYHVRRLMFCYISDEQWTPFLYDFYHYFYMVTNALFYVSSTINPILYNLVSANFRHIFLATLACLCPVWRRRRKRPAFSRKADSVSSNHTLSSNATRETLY
Assay: NTR1 dose response, high-content imaging beta-arrestin-GFP assay in NTR1-U2OS cells
Assay type: cell-based
Details: read-out: EC50
pEC50: −log10 of the molar value.

// solved cases for pEC50 follow
In [3]: df
Out[3]:
                                     smiles  measured_value
0  CN(CCO)c1ccc2nc(C3(F)CC3)nc(N3CCC(c4ccccc4OCCF)CC3)c2c1    5.70 to 6.30
1  COC(=O)Cc1c(C)nc(N2CCC(c3ccccc3OC)CC2)nc1C1CC1          < 5.00
2  COc1ccccc1N1CC2(C1)CN(c1nc(C3CC3)nc3ccc(N(C)CCO)cc13)C2    5.00 to 5.70
3  COc1cncnc1C1CCN(c2nc(C3(F)CC3)nc3c(F)cc(N(C)CCO)cc23)CC1          < 5.00
4  CN(C)c1ccccc1C1CCN(c2nc(C3(C(F)(F)F)CCCC3)nc3ccc(N(C)CCN4CCOCC4)cc23)CC1    5.00 to 5.70
5  COc1ccccc1C1CCN(c2nc(C3(F)CCC3)nc3ccc(N(C)CCN4CCOCC4)cc23)CC1          > 6.30
6  COc1ccccc1C1CCN(c2nc(-c3ccccc3)nc3ccc(N(C)CCN4CCOCC4)cc23)CC1          < 5.00
7  COc1cccnc1C1CCN(c2nc(C3(F)CC3)nc3c(F)cc(N(C)CCO)cc23)CC1    5.00 to 5.70
8  COc1ccccc1C1CCN(c2nc(C3(F)CCCC3)nc3ccc(N(C)CCO)cc23)CC1    5.70 to 6.30
9  CN(C)c1ccccc1C1CCN(c2nc(C3(C(F)(F)F)CC3)nc3ccc(N(C)CCO)cc23)CC1    5.70 to 6.30

The reported value for COc1ccccc1C1CCN(c2nc(C3(F)CC3)nc3ccc(N(C)C)cc23)CC1 in terms of pEC50 is 5.70 to 6.30

The reported value for COc1ccccc1C1CCN(c2nc(C3CC3)nc3c(Cl)cc(N(C)CCO)cc23)CC1 in terms of pEC50 is > 6.30

The reported value for COc1ccccc1C1CCN(c2nc(C3(C(F)(F)F)CCC3)nc3ccc(N(C)CCO)cc23)CC1 in terms of pEC50 is 5.70 to 6.30

The reported value for COc1cccc2c1CN(c1nc(C3CC3)nc3ccc(N(C)CCO)cc13)C2 in terms of pEC50 is < 5.00

The reported value for COc1cncnc1C1CCN(c2nc(C3(F)CC3)nc3ccc(N(C)CCO)cc23)CC1 in terms of pEC50 is < 5.00

The reported value for CN(C)c1ccccc1C1CCN(c2nc(C3(C)CCCC3)nc3ccc(N(C)CCO)cc23)CC1 in terms of pEC50 is 5.00 to 5.70
